# Tested on: MS2 coat protein
# assay info: apparent KD of MS2 coat protein, switch ON state; designed switch direction (-1 OFF switch, 1 ON switch): 1; higher = weaker reporter binding
# setup conditions: FMN input: 0 or 200 uM; Eterna round: R93 (includes R88 designs)
measurement kind: apparent KD of MS2 coat protein (nM)
Just the number in nM, nothing appended.

Sure, the documented apparent KD of MS2 coat protein for AAAAAAAAAAGUGAGGAUAUGUGAUCGGUGACAUGAGGAUCACCCAUGUGAGGCCUUCGGGCCAAGCAGAAGGUAUAAAAAAAAA [Same State 2-VII] is 105

Sure, the documented apparent KD of MS2 coat protein for AAAUAAAUGACUAAGGAUAUCUCUGAGAAAACAUGAGGAUCACCCAUGUAAUAAUAAAAAGGGUGAGAGAAGGUAGUCAACAAAC [Same State 2.1 (Pariah 4 -changed stack on 9nt hairpin)] is 18

Sure, the documented apparent KD of MS2 coat protein for AGGAGACAUGAGGAUCACCCAUGUGAGAAGAGGCGAGGAUAUCGAAAAAAAAAAAAAAAACGAGAAGGCGCGAGAA [SameState1] is 35.4

Sure, the documented apparent KD of MS2 coat protein for AAUAAACAUGAGGAUCACCCAUGUGAAAAUAUGGGAGGAUAUAGGAAAAAAAAAAAAAAACUAGAAGGCCCAAAAA [SS! 1 MT 12] is 75.3

Sure, the documented apparent KD of MS2 coat protein for GAAAAACAUGAGGAUCACCCAUGUGGAAAUAUGGGAGGAUAUACAAAGACGAAAGUCAAAGUAGAAGGCCUAAAAG [Mat - Same State 1 - Eli mod - D4] is 18.2

Sure, the documented apparent KD of MS2 coat protein for AAUAUAUUAAGUGAGGAUAUCAAGAAAAAAACAUGAGGAUCACCCAUGUGGGAAACACAAUAGGGUGAGAAGGUACUUAAUAUAU [Samwise Clockwise 18 - Jieux - Same State 2] is 10200

Sure, the documented apparent KD of MS2 coat protein for AAAAAAAAAAGCUAGGAUAUCCAAAAAAAAACAUGAGGAUCACCCAUGUAAAAAAAAAAAAAAUGGGAGAAGGAGCAAAAAAAAAA [Mod of Eli] is 28.5

Sure, the documented apparent KD of MS2 coat protein for CAACAGAGAGGACAGGAUAUGUCGUGAUAAACAUGAGGAUCACCCAUGUGAGACAUCACGUAGUCGCAGAAGGGUCCCGUCUUAC [Esleerandi] is 15.3

Sure, the documented apparent KD of MS2 coat protein for AAAAAACAUGAGGAUCACCCAUGUAGAAACAUGGGAGGAUAUACAAAGACGAAAGUCAAAGUAGAAGGCCUAAGAA [Mat - Same State 1 - Mod - D166] is 81.8

Sure, the documented apparent KD of MS2 coat protein for CGAAAGGAGAGAGAGGAUAUCCAAAGGAAAACAUGAGGAUCACCCAUGUAGAAGGUAGGAGAUUGGGAGAAGGCUCAAGAGAUAU [salish99-ss2-153] is 20

Sure, the documented apparent KD of MS2 coat protein for AAAAAACAUGAGGAUCACCCAUGUAAAAAUAUCACAGGAUAUGGAAACACGAAAGUGAAACCAGAAGGGUGAAAAG [77%, Mat - Mod of Eli, 12] is 20.1

Sure, the documented apparent KD of MS2 coat protein for AUAAAUAAAAGAGAGGAUAUCCAAAAGAAAACAUGAGGAUCACCCAUGUGAAAGAAAAUAAAAUGGGAGAAGGCUCACAAUAAUA [Topaz 32] is 23
